Just for reference, patent US3974140A is where these values come from.

Below, each entry is listed alongside its reported MIC.
Test system: Staph. aureus 1777 E
Test Description: MIC, liquid medium test tube series dilution test
Type: cell-based, Staphylococcus aureus
Measurement Conditions: 24 hours, 37°C
The reply should contain only the number, in units/ml.

{"Molecule": "CC1(C)S[C@@H]2[C@H](NC(=O)[C@H](N)c3ccccc3)C(=O)N2[C@H]1C(=O)O [Ampicillin, D(-)-α-Aminobenzylpenicillin, reference compound]", "MIC (units/ml)": 200}
{"Molecule": "CN(C(=O)N[C@@H](C(=O)N[C@@H]1C(=O)N2[C@@H]1SC(C)(C)[C@@H]2C(=O)O)c1ccccc1)C(=O)c1cccc(Cl)c1 [Example 117]", "MIC (units/ml)": 12.5}

Prompt: Dear colleague, I am looking for the recorded MIC of the following molecule: CN(C(=O)N[C@@H](C(=O)N[C@@H]1C(=O)N2[C@@H]1SC(C)(C)[C@@H]2C(=O)O)c1ccccc1)C(=O)c1ccc(Cl)cc1[N+](=O)[O-] [Example 127]
Response: 12.5

Prompt: And CN(C(=O)N[C@@H](C(=O)N[C@@H]1C(=O)N2[C@@H]1SC(C)(C)[C@@H]2C(=O)O)c1ccccc1)C(=O)c1ccccc1Br [Example 128] ?
Response: 12.5

Prompt: And CCN(C(=O)N[C@@H](C(=O)N[C@@H]1C(=O)N2[C@@H]1SC(C)(C)[C@@H]2C(=O)O)c1ccccc1)C(=O)c1ccccc1Cl [Example 138] ?
Response: 12.5
